Tested on: GBM8401
Test: MTT assay, GBM8401 tumor cell
Details: concentration 10 μM, tumor cell

{"Molecule": "O=C1c2ccccc2C(=O)c2c1ccc1nc3n(c21)CCS3 [f3-1]", "Study System": "GBM8401", "Cell survival rate (%) GBM8401": 42}
{"Molecule": "O=C1c2ccccc2C(=O)c2c1ccc1nc(SC(=O)N3CCOCC3)[nH]c21 [f2-2]", "Study System": "GBM8401", "Cell survival rate (%) GBM8401": 92}
{"Molecule": "O=C1c2ccccc2C(=O)c2c1ccc1nc(SCCCN3CCCCC3)[nH]c21 [f1-14]", "Study System": "GBM8401", "Cell survival rate (%) GBM8401": 6}
{"Molecule": "CCSc1nc2ccc3c(c2[nH]1)C(=O)c1ccccc1C3=O [f1-1]", "Study System": "GBM8401", "Cell survival rate (%) GBM8401": 42}
{"Molecule": "O=C1c2ccccc2C(=O)c2c1ccc1nc(SC(=O)N3CCCC3)[nH]c21 [f2-7]", "Study System": "GBM8401", "Cell survival rate (%) GBM8401": 72}
{"Molecule": "CCN(CC)C(=O)Sc1nc2ccc3c(c2[nH]1)C(=O)c1ccccc1C3=O [f2-9]", "Study System": "GBM8401", "Cell survival rate (%) GBM8401": 46}
{"Molecule": "Cc1ccccc1CSc1nc2ccc3c(c2[nH]1)C(=O)c1ccccc1C3=O [f1-4]", "Study System": "GBM8401", "Cell survival rate (%) GBM8401": 25}
{"Molecule": "O=C(Sc1nc2ccc3c(c2[nH]1)C(=O)c1ccccc1C3=O)c1cc(C(F)(F)F)ccc1C(F)(F)F [f2-5]", "Study System": "GBM8401", "Cell survival rate (%) GBM8401": 40}
{"Molecule": "CCN(CC)C(=O)CCSc1nc2ccc3c(c2[nH]1)C(=O)c1ccccc1C3=O [f1-20]", "Study System": "GBM8401", "Cell survival rate (%) GBM8401": 28}
